# credit: ChEMBL document CHEMBL2202977

Target: Pyruvate kinase (Staphylococcus aureus (strain MRSA252))
Assay: Inhibition of methicillin-resistant Staphylococcus aureus 252 pyruvate kinase by LDH assay
Set-up: species or system Staphylococcus aureus subsp. aureus MRSA252
pIC50: −log10 of the molar value.
Threshold rule: pIC50 greater than or equal to 7 is yes; below that, no.

Form field: pIC50 at least 7? Entry: "C/C(=N\NC(=O)c1cc(Br)ccc1O)c1cc2cc(I)ccc2[nH]1" yes

Form field: pIC50 at least 7? Entry: COc1ccc2c(c1)cc(C(C)=NNC(=O)c1cc(Br)ccc1O)n2C (mixture of isomers) no

Form field: pIC50 at least 7? Entry: CC(=NNC(=O)c1cc(Br)ccc1O)c1nc2ccccc2n1C (mixture of isomers) no

Form field: pIC50 at least 7? Entry: CC(=NNC(=O)c1cc(Br)ccc1O)c1cc2cc(F)ccc2n1C (mixture of isomers) no

Form field: pIC50 at least 7? Entry: "CC(=NNC(=O)c1cc(Br)ccc1O)c1nc2ccccc2s1" no

Form field: pIC50 at least 7? Entry: "C/C(=N\NC(=O)c1cc(Br)ccc1O)c1cc2cc(Br)ccc2[nH]1" yes

Form field: pIC50 at least 7? Entry: "C/C(=N\NC(=O)c1cc(Br)ccc1O)c1cc2cc(F)c(F)cc2[nH]1" yes

Form field: pIC50 at least 7? Entry: "C/C(=N\NC(=O)c1cc(Br)ccc1O)c1cc2ccccc2s1" no

====

Molecular target: Pyruvate kinase PKM (Homo sapiens) (UniProt P14618)
Sequence (P14618 2-531 limits assumed): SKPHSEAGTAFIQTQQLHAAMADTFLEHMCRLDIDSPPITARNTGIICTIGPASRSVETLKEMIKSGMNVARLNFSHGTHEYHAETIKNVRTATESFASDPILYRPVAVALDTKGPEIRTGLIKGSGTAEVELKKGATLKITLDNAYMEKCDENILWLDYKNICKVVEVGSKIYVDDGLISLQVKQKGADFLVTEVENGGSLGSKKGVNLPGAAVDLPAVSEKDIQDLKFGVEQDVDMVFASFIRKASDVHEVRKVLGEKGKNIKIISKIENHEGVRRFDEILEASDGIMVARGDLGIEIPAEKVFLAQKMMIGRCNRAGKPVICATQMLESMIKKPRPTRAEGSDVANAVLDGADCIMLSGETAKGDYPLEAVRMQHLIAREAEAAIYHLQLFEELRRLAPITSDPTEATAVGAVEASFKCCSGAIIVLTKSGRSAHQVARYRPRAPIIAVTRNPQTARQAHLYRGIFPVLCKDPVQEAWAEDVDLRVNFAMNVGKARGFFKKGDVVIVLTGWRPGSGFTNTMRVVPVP
Test: Inhibition of human pyruvate kinase M2 at 10 uM by LDH assay
experimentalReadout: inhibition

May I ask what inhibition has been recorded for CC(=NNC(=O)c1cc(I)ccc1O)c1cc2ccccc2n1C (mixture of isomers) ? -2%

May I ask what inhibition has been recorded for "C/C(=N\NC(=O)c1cc(Br)ccc1O)c1cc2ccccc2[nH]1" ? 4.3%

May I ask what inhibition has been recorded for CC(=NNC(=O)c1cc(Br)ccc1O)c1cc2cc(F)c(F)cc2n1C (mixture of isomers) ? -8.1%

May I ask what inhibition has been recorded for "C#CCOc1ccccc1C(=O)N/N=C(\C)c1cc2cc(Br)ccc2[nH]1" ? 2.5%

May I ask what inhibition has been recorded for "O=C(NN=C(c1ccccc1)c1cc2ccccc2[nH]1)c1cc(Br)ccc1O" ? 4.8%

May I ask what inhibition has been recorded for CC(=NNC(=O)c1cc(Br)ccc1O)c1cc2cc(Br)ccc2n1C (mixture of isomers) ? 11.9%

May I ask what inhibition has been recorded for CCC(=NNC(=O)c1cc2ccccc2cc1O)c1cc2cc(Br)ccc2n1C (mixture of isomers) ? -0.8%

May I ask what inhibition has been recorded for "C/C(=N\NC(=O)c1cc(Br)ccc1O)c1cc2cc(Br)ccc2[nH]1" ? 8.3%

May I ask what inhibition has been recorded for "CC/C(=N\NC(=O)c1cc(Br)ccc1O)c1cc2ccccc2[nH]1" ? -2.4%

May I ask what inhibition has been recorded for "O=C(N/N=C/c1cc2ccccc2[nH]1)c1cc(Br)ccc1O" ? -1.4%

May I ask what inhibition has been recorded for CC(=NNC(=O)c1cc(Br)ccc1O)c1cc2cc(Cl)ccc2n1C (mixture of isomers) ? 3.7%

May I ask what inhibition has been recorded for CCC(=NNC(=O)c1cc(Br)ccc1O)c1cc2ccccc2n1C (mixture of isomers) ? -1.5%

May I ask what inhibition has been recorded for "C/C(=N\NC(=O)c1cc(I)ccc1O)c1cc2ccccc2[nH]1" ? -1.3%

May I ask what inhibition has been recorded for "COc1ccc2[nH]c(/C(C)=N/NC(=O)c3cc(Br)ccc3O)cc2c1" ? 2.2%

May I ask what inhibition has been recorded for "C/C(=N\NC(=O)c1cc(Br)ccc1O)c1cc2ccccc2s1" ? -1.1%

May I ask what inhibition has been recorded for CC(=NNC(=O)c1cc(Br)ccc1O)c1cc2ccccc2n1C (mixture of isomers) ? 0.4%

May I ask what inhibition has been recorded for "CC/C(=N\NC(=O)c1cc2ccccc2cc1O)c1cc2cc(Br)ccc2[nH]1" ? 3%

May I ask what inhibition has been recorded for "COc1ccc(Br)cc1C(=O)N/N=C(\C)c1cc2ccccc2[nH]1" ? 16.1%

May I ask what inhibition has been recorded for "C/C(=N\NC(=O)c1cc(Br)ccc1O)c1cc2cc(Cl)ccc2[nH]1" ? 4.6%

May I ask what inhibition has been recorded for "C/C(=N\NC(=O)c1cc(Br)ccc1O)c1cc2cc(F)ccc2[nH]1" ? 0.4%

May I ask what inhibition has been recorded for CC(=NNC(=O)c1cc(Br)ccc1O)c1nc2ccccc2n1C (mixture of isomers) ? 0.5%

May I ask what inhibition has been recorded for "C/C(=N\NC(=O)c1cc(Br)ccc1O)c1nc2ccccc2[nH]1" ? 6.7%

====

Target: Pyruvate kinase (Staphylococcus aureus (strain MRSA252), UniProt Q6GG09)
Assay: Inhibition of methicillin-resistant Staphylococcus aureus 252 pyruvate kinase by LDH assay
Would you mind telling me the reported pIC50 of each entry?
Kindly note that pIC50 refers to -log10 of the concentration in mol/L and answer with the value alone.

May I ask what pIC50 has been recorded for "C/C(=N\NC(=O)c1cc(Br)ccc1O)c1nc2ccccc2[nH]1" ? 7.04

May I ask what pIC50 has been recorded for "CC/C(=N\NC(=O)c1cc2ccccc2cc1O)c1cc2cc(Br)ccc2[nH]1" ? 7.74

May I ask what pIC50 has been recorded for "CCOc1ccc(Br)cc1C(=O)N/N=C(\C)c1cc2ccccc2[nH]1" ? 7.20

May I ask what pIC50 has been recorded for "C/C(=N\NC(=O)c1ccc(Br)cc1O)c1cc2ccccc2[nH]1" ? 5.88

May I ask what pIC50 has been recorded for "O=C(NN=C(c1ccccc1)c1cc2ccccc2[nH]1)c1cc(Br)ccc1O" ? 6.35

May I ask what pIC50 has been recorded for "COc1ccc2[nH]c(/C(C)=N/NC(=O)c3cc(Br)ccc3O)cc2c1" ? 6.75

May I ask what pIC50 has been recorded for Cn1c(C(=NNC(=O)c2cc(Br)ccc2O)c2ccccc2)cc2ccccc21 (mixture of isomers) ? 5.22

May I ask what pIC50 has been recorded for CC(=NNC(=O)c1cc(Br)ccc1O)c1cc2cc(Br)ccc2n1C (mixture of isomers) ? 6.84

May I ask what pIC50 has been recorded for CC(=NNC(=O)c1cc(Br)ccc1O)c1cc2ccc(Br)cc2n1C (mixture of isomers) ? 7.77

May I ask what pIC50 has been recorded for "CC/C(=N\NC(=O)c1cc(Br)ccc1O)c1cc2ccccc2[nH]1" ? 6.90

====

Would you mind telling me the reported pIC50 of each entry?
Molecular target: Pyruvate kinase (Staphylococcus aureus (strain MRSA252), UniProt Q6GG09)
Test: Inhibition of methicillin-resistant Staphylococcus aureus 252 pyruvate kinase by LDH assay
Kindly note that pIC50 refers to -log10 of the concentration in mol/L and answer with the value alone.

May I ask what pIC50 has been recorded for "CCOCOc1ccccc1C(=O)N/N=C(\C)c1cc2cc(Br)ccc2[nH]1" ? 6.60

May I ask what pIC50 has been recorded for "C/C(=N\NC(=O)c1cccc(Br)c1)c1cc2ccccc2[nH]1" ? 5.09

May I ask what pIC50 has been recorded for "COc1ccc(Br)cc1C(=O)N/N=C(\C)c1cc2ccccc2[nH]1" ? 6.74

May I ask what pIC50 has been recorded for "C/C(=N\NC(=O)c1cc(Br)ccc1O)c1cc2ccc(Br)cc2[nH]1" ? 7.62

May I ask what pIC50 has been recorded for CC(=NNC(=O)c1cc(Br)ccc1O)c1cc2c(F)c(F)c(F)cc2n1C (mixture of isomers) ? 7.26

May I ask what pIC50 has been recorded for "C/C(=N\NC(=O)c1cc(Br)ccc1O)c1cc2c(F)c(F)c(F)cc2[nH]1" ? 7.82

May I ask what pIC50 has been recorded for CCC(=NNC(=O)c1cc(Br)ccc1O)c1cc2cc(Br)ccc2n1C (mixture of isomers) ? 6.77

May I ask what pIC50 has been recorded for "C/C(=N\NC(=O)c1cc(Br)ccc1O)c1cc2ccccc2[nH]1" ? 7.07

May I ask what pIC50 has been recorded for "C/C(=N\NC(=O)c1ccccc1O)c1cc2ccccc2[nH]1" ? 5.06

May I ask what pIC50 has been recorded for "C/C(=N\NC(=O)c1cc2ccccc2cc1O)c1cc2cc(Br)ccc2[nH]1" ? 7.59

====

Target: Pyruvate kinase (Staphylococcus aureus (strain MRSA252), UniProt Q6GG09)
Sequence (Q6GG09 whole entry): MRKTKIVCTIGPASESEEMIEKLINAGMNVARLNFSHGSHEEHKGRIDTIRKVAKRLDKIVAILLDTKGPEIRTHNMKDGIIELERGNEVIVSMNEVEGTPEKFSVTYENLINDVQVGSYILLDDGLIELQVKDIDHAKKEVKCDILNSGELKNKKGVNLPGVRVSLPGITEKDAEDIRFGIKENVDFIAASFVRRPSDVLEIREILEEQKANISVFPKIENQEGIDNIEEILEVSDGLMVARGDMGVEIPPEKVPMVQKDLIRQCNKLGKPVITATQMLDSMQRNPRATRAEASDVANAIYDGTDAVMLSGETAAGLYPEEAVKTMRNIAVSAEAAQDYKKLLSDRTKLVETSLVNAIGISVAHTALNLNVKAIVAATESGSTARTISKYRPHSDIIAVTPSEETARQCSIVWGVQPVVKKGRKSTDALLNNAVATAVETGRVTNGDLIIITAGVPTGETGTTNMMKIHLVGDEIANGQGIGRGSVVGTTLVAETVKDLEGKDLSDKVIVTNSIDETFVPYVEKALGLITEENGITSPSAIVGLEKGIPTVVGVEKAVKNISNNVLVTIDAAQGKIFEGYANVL
Test: Inhibition of methicillin-resistant Staphylococcus aureus 252 pyruvate kinase by LDH assay
Would you mind telling me the reported IC50 of each entry?
Numbers only; they are read as nM.

May I ask what IC50 has been recorded for "CC/C(=N\NC(=O)c1cc(Br)ccc1O)c1cc2cc(Br)ccc2[nH]1" ? 49

May I ask what IC50 has been recorded for COc1cc(O)c(C(=O)NN=C(C)c2cc3ccccc3n2C)cc1Br (mixture of isomers) ? 841

May I ask what IC50 has been recorded for "C/C(=N\NC(=O)c1cc2ccccc2cc1O)c1cc2ccccc2[nH]1" ? 42

May I ask what IC50 has been recorded for "COc1ccc(Br)cc1C(=O)N/N=C/c1cc2ccccc2[nH]1" ? 451

May I ask what IC50 has been recorded for "C/C(=N\NC(=O)c1cc(Br)ccc1O)c1cc2cc(F)ccc2[nH]1" ? 49

May I ask what IC50 has been recorded for "CC/C(=N\NC(=O)c1cc2ccccc2cc1O)c1cc2c(F)c(F)c(F)cc2[nH]1" ? 31

May I ask what IC50 has been recorded for "O=C(N/N=C/c1cc2ccccc2[nH]1)c1cc(Br)ccc1O" ? 863

May I ask what IC50 has been recorded for CC(=NNC(=O)c1cc(I)ccc1O)c1cc2ccccc2n1C (mixture of isomers) ? 483

May I ask what IC50 has been recorded for "C/C(=N\NC(=O)c1cc2ccccc2cc1O)c1cc2c(F)c(F)c(F)cc2n1C" ? 59
